# Assay Notes: Inhibition of PKA (unknown origin) using LRRASLG as substrate after 1 hr by fluorescence assay
# Parameters: species or system Homo sapiens
Measurement Name: log10 of IC50 (log10 of the value in nM)
Would you kindly interpret these values as log10 of IC50 expressed in nM?

log10 of IC50 reported for this molecule `c1nc(N2CCC3(CCCCN3)CC2)c2nc[nH]c2n1` : 3.00

###

# Target Or System: Tyrosine-protein kinase ABL1 (Homo sapiens)
# Sequence (P00519 whole entry): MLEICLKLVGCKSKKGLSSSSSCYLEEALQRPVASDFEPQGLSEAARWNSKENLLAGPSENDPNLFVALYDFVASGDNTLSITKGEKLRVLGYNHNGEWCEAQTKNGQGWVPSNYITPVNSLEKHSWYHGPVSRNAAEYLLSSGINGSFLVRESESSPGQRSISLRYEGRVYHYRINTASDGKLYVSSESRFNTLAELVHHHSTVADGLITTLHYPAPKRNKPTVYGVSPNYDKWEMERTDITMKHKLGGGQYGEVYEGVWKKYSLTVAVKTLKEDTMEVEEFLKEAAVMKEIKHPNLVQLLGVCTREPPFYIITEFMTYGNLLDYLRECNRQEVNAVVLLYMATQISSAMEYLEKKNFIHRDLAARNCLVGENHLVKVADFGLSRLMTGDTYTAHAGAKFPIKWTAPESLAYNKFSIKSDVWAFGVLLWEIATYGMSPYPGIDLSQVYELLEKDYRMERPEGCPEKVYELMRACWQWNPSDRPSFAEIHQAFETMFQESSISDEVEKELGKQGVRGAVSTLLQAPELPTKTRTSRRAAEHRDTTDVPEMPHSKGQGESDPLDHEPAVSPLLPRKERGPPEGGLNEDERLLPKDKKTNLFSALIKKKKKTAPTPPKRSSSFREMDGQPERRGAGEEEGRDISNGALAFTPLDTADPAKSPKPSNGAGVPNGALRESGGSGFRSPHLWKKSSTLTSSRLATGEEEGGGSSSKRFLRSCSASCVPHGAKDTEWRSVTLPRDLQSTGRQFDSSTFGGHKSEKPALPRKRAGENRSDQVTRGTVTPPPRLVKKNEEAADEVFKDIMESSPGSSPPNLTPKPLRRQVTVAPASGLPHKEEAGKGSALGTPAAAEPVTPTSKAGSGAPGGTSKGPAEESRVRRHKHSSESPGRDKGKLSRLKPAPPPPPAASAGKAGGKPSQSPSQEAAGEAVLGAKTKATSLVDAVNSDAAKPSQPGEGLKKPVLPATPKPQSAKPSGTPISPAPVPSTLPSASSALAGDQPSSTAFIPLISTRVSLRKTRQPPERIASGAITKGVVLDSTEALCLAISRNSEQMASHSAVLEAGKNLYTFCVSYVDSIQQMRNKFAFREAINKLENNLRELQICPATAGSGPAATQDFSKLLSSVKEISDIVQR
# Assay Notes: Inhibition of ABL (unknown origin) at 30 uM by microfluidic mobility shift assay relative to control
Tick YES if inhibition is 8% or greater. Tick NO if inhibition is less than 8%.

compound=O=S(=O)(c1cccc2cnccc12)N1CCCC12CCNCC2 assigned_label=NO
compound=c1nc(N2CCC3(CCCCN3)CC2)c2nc[nH]c2n1 assigned_label=YES
compound="c1ccc(C2CCC3(CCN(c4ncnc5[nH]cnc45)CC3)NC2)cc1 (stereo not given)" assigned_label=YES

Attention now turns to another entry.
### Prompt Could you please find out whether `c1nc(N2CCC3(CCCCC3)CC2)c2nc[nH]c2n1` has inhibition that meets 8% or exceeds it?
### Response YES

###

# Target Or System: Tyrosine-protein kinase Lck (Homo sapiens, UniProt P06239)
# Sequence (P06239 2-509 limits assumed): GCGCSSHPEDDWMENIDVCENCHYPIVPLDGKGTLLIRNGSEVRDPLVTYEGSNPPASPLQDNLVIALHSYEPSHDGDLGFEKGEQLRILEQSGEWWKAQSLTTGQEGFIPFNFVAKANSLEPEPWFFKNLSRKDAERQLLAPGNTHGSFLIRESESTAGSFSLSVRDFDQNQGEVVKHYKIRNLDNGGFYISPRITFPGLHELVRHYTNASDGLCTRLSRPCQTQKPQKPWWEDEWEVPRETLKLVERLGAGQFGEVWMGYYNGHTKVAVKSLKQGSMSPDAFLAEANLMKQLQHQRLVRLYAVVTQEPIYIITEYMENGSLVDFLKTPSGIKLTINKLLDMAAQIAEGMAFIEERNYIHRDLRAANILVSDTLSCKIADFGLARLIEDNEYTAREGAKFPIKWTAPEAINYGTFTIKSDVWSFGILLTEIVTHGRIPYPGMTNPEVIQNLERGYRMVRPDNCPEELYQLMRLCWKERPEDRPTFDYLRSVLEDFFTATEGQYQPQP
# Assay Notes: Inhibition of LCK (unknown origin) at 30 uM by microfluidic mobility shift assay relative to control
Tick 1 if inhibition is 20% or greater. Tick 0 if inhibition is less than 20%.

Answered cases to consult:
molecule="c1nc(N2CCCC3(CCCNC3)C2)c2nc[nH]c2n1 (configuration not stated)" assigned_label=0
molecule=O=S(=O)(c1cccc2cnccc12)N1CCC2(CCNC2)CC1 assigned_label=0
molecule="c1ccc(C2CCNC3(CCN(c4ncnc5[nH]cnc45)CC3)C2)cc1 (racemic)" assigned_label=1
molecule=O=S(=O)(c1cccc2cnccc12)N1CCCC2(CCNCC2)C1 assigned_label=0
molecule=O=S(=O)(c1cccc2cnccc12)N1CCCC12CCNCC2 assigned_label=0

### Prompt Could you please find out whether O=S(=O)(c1cccc2cnccc12)N1CCC2(CC1)CC(O)CCN2 (racemic) has inhibition that meets 20% or exceeds it?
### Response 1

### Prompt Could you please find out whether `NC1(Cc2ccccc2)CCN(c2ncnc3[nH]cnc23)CC1` has inhibition that meets 20% or exceeds it?
### Response 1

### Prompt Could you please find out whether `c1nc(N2CCC3(CCCCO3)CC2)c2nc[nH]c2n1` has inhibition that meets 20% or exceeds it?
### Response 1

### Prompt Could you please find out whether `O=S(=O)(c1cccc2cnccc12)N1CCC2(CCCCN2)CC1` has inhibition that meets 20% or exceeds it?
### Response 0

### Prompt Could you please find out whether `NC1(Cc2ccccc2)CCN(S(=O)(=O)c2cccc3cnccc23)CC1` has inhibition that meets 20% or exceeds it?
### Response 0

### Prompt Could you please find out whether `c1nc(N2CCC3(CCCOC3)CC2)c2nc[nH]c2n1` has inhibition that meets 20% or exceeds it?
### Response 1

### Prompt Could you please find out whether O=S(=O)(c1cccc2cnccc12)N1CCC2(CCC(O)CN2)CC1 (racemic) has inhibition that meets 20% or exceeds it?
### Response 0

### Prompt Could you please find out whether `c1nc(N2CCC3(CCNC3)CC2)c2nc[nH]c2n1` has inhibition that meets 20% or exceeds it?
### Response 1

### Prompt Could you please find out whether c1ccc(C2CCC3(CCN(c4ncnc5[nH]cnc45)CC3)NC2)cc1 (configuration not stated) has inhibition that meets 20% or exceeds it?
### Response 1

###

# Target Or System: Proto-oncogene tyrosine-protein kinase Src (Homo sapiens)
# Sequence (P12931 2-536 limits assumed): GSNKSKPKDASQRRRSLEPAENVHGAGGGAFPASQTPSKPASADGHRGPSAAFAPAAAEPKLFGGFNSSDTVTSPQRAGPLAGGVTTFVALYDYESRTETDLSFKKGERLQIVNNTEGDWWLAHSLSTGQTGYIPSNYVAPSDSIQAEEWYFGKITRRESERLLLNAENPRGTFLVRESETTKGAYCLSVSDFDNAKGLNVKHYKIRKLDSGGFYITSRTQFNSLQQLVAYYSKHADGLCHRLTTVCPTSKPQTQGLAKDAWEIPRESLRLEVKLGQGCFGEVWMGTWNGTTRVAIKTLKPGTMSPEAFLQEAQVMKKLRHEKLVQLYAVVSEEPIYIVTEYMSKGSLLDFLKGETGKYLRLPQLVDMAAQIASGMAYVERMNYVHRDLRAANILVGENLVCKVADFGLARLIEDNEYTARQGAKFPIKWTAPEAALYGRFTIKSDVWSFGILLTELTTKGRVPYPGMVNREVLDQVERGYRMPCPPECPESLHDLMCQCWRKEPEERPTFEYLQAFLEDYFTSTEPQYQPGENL
# Assay Notes: Inhibition of SRC (unknown origin) at 30 uM by microfluidic mobility shift assay relative to control
Measurement Name: inhibition (%)
// return numeric value only (unit: %, not printed)

molecule="c1ccc(CC2CCC3(CCN(c4ncnc5[nH]cnc45)CC3)NC2)cc1 (racemic)" unit_of_measurement=% reported_value=33
molecule=c1nc(N2CCCC23CCNCC3)c2nc[nH]c2n1 unit_of_measurement=% reported_value=6
molecule=c1nc(N2CCCC3(CCNCC3)C2)c2nc[nH]c2n1 unit_of_measurement=% reported_value=19
molecule=c1nc(N2CCC3(CCCOC3)CC2)c2nc[nH]c2n1 unit_of_measurement=% reported_value=41
molecule="CNC(=O)C1CCC2(CCN(c3ncnc4[nH]cnc34)CC2)NC1 (racemic)" unit_of_measurement=% reported_value=24

inhibition reported for this molecule CN(C)C(=O)C1CCC2(CCN(c3ncnc4[nH]cnc34)CC2)NC1 (racemic) : 16

###

# Organism: Homo sapiens
# Assay Notes: Inhibition of PKA (unknown origin) at 30 uM by microfluidic mobility shift assay relative to control
Measurement Name: inhibition (%)
// return numeric value only (unit: %, not printed)

compound="c1ccc(CC2CCNC3(CCN(c4ncnc5[nH]cnc45)CC3)C2)cc1 (racemic)" measurement_name=inhibition reported_value=101
compound=NC1(Cc2ccccc2)CCN(S(=O)(=O)c2cccc3cnccc23)CC1 measurement_name=inhibition reported_value=80

inhibition reported for this compound O=C(C1CCC2(CCN(c3ncnc4[nH]cnc34)CC2)NC1)N1CCOCC1 (racemic) : 85

###

# Target Or System: Mitogen-activated protein kinase 1 (Homo sapiens)
# Sequence (P28482 whole entry): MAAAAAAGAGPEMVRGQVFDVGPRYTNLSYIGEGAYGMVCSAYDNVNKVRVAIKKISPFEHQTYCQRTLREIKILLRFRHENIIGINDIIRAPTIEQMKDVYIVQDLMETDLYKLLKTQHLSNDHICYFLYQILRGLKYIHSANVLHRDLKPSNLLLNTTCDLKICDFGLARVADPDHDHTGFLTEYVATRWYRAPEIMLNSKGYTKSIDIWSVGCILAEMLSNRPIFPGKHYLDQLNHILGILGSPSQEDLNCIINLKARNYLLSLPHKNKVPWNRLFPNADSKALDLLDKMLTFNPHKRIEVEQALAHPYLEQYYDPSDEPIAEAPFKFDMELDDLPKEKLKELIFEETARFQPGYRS
# Assay Notes: Inhibition of ERK2 (unknown origin) at 30 uM by microfluidic mobility shift assay relative to control
Measurement Name: inhibition (%)
// return numeric value only (unit: %, not printed)

compound=O=S(=O)(c1cccc2cnccc12)N1CCC2(CCCN2)CC1 reported_value=7

inhibition reported for this compound OCC1CCC2(CCN(c3ncnc4[nH]cnc34)CC2)NC1 (racemic) : 32

inhibition reported for this compound O=S(=O)(c1cccc2cnccc12)N1CCC2(CCC(O)CN2)CC1 (racemic) : 8

inhibition reported for this compound c1ccc(CC2CCC3(CCN(c4ncnc5[nH]cnc45)CC3)NC2)cc1 (racemic) : 41

inhibition reported for this compound O=C(O)C1CCC2(CCN(c3ncnc4[nH]cnc34)CC2)NC1 (racemic) : 37

inhibition reported for this compound `c1nc(N2CCC3(CCCNC3)CC2)c2nc[nH]c2n1` : 50

inhibition reported for this compound `c1nc(N2CCC3(CCCN3)CC2)c2nc[nH]c2n1` : 50

inhibition reported for this compound c1ccc(CC2CCNC3(CCN(c4ncnc5[nH]cnc45)CC3)C2)cc1 (racemic) : 74

###

# Target Or System: Serine/threonine-protein kinase Chk2 (Homo sapiens, UniProt O96017)
# Sequence (O96017 whole entry): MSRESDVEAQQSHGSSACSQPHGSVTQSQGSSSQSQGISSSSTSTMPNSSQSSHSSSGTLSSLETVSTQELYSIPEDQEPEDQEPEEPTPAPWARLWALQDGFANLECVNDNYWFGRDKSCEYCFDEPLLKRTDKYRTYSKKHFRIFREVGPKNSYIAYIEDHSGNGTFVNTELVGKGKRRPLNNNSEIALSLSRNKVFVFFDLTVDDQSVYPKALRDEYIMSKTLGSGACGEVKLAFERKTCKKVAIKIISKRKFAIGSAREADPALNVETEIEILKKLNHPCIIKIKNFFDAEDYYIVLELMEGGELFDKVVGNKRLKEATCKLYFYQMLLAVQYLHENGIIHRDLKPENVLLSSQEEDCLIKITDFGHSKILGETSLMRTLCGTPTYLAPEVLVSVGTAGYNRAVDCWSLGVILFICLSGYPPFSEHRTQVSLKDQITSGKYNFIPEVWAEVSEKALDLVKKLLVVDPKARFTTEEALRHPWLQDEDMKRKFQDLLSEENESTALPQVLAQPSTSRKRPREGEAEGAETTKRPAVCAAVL
# Assay Notes: Inhibition of CHK2 (unknown origin) at 30 uM by microfluidic mobility shift assay relative to control
Tick MET if inhibition is 30% or greater. Tick NOT MET if inhibition is less than 30%.

Answered cases to consult:
compound="O=C(C1CCC2(CCN(c3ncnc4[nH]cnc34)CC2)NC1)N1CCOCC1 (racemic)" target_or_system="Serine/threonine-protein kinase Chk2 (Homo sapiens, UniProt O96017)" assigned_label="NOT MET"
compound="O=C(O)C1CCC2(CCN(c3ncnc4[nH]cnc34)CC2)NC1 (racemic)" target_or_system="Serine/threonine-protein kinase Chk2 (Homo sapiens, UniProt O96017)" assigned_label="NOT MET"
compound=O=S(=O)(c1cccc2cnccc12)N1CCC2(CCNC2)CC1 target_or_system="Serine/threonine-protein kinase Chk2 (Homo sapiens, UniProt O96017)" assigned_label=MET
compound=O=S(=O)(c1cccc2cnccc12)N1CCC2(CCCCN2)CC1 target_or_system="Serine/threonine-protein kinase Chk2 (Homo sapiens, UniProt O96017)" assigned_label="NOT MET"
compound=O=S(=O)(c1cccc2cnccc12)N1CCC2(CCCNC2)CC1 target_or_system="Serine/threonine-protein kinase Chk2 (Homo sapiens, UniProt O96017)" assigned_label=MET

### Prompt Could you please find out whether `NC1(Cc2ccccc2)CCN(S(=O)(=O)c2cccc3cnccc23)CC1` has inhibition that meets 30% or exceeds it?
### Response NOT MET

### Prompt Could you please find out whether `c1nc(N2CCC3(CCCCO3)CC2)c2nc[nH]c2n1` has inhibition that meets 30% or exceeds it?
### Response MET

### Prompt Could you please find out whether COC(=O)C1CCC2(CCN(c3ncnc4[nH]cnc34)CC2)NC1 (racemic) has inhibition that meets 30% or exceeds it?
### Response NOT MET

###

Below are compounds with their pIC50 as measured on RAC-alpha serine/threonine-protein kinase (Homo sapiens).
Sequence (P31749 whole entry): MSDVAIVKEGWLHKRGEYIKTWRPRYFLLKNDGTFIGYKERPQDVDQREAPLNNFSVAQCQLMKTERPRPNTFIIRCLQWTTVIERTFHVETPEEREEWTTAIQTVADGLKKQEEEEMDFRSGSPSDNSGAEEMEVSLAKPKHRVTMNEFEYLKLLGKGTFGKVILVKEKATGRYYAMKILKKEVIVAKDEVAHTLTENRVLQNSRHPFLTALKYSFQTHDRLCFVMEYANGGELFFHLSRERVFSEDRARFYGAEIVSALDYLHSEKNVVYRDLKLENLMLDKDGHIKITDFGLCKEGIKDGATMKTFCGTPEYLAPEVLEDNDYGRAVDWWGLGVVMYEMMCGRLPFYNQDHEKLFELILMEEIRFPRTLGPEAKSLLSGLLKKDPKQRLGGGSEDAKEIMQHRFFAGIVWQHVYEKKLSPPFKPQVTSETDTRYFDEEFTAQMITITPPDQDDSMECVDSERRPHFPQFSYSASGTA
Please report pIC50 as the negative decimal logarithm of the molar concentration, giving only the number.

smiles_notation=c1nc(N2CCC3(CCCCN3)CC2)c2nc[nH]c2n1 target_or_system="RAC-alpha serine/threonine-protein kinase (Homo sapiens)" reported_value=4.85

Noted pIC50 for `c1nc(N2CCC3(CCCNC3)CC2)c2nc[nH]c2n1` , tested on RAC-alpha serine/threonine-protein kinase (Homo sapiens): 5.80

###

Entries annotated with measured inhibition
# Target Or System: Insulin receptor (Homo sapiens) (UniProt P06213)
# Sequence (P06213 28-758 limits assumed): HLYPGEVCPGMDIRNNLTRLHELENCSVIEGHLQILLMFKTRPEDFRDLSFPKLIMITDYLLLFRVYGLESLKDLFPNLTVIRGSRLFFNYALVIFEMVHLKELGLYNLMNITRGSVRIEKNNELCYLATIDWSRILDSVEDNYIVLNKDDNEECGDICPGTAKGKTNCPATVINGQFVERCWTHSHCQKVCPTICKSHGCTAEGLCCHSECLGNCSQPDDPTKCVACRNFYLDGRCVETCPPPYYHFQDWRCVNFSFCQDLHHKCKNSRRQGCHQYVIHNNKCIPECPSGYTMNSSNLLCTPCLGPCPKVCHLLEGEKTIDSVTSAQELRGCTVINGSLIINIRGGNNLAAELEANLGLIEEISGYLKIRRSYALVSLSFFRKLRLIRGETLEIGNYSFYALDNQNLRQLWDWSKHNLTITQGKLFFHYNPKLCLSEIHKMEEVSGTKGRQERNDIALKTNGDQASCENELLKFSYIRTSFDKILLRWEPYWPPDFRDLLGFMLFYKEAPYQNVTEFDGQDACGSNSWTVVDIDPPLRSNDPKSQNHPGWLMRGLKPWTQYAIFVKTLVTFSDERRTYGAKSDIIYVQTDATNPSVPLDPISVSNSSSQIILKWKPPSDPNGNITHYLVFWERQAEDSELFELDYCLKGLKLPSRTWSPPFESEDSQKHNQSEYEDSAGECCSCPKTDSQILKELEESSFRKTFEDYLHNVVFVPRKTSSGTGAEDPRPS
# Sequence (P06213 763-1382 limits assumed): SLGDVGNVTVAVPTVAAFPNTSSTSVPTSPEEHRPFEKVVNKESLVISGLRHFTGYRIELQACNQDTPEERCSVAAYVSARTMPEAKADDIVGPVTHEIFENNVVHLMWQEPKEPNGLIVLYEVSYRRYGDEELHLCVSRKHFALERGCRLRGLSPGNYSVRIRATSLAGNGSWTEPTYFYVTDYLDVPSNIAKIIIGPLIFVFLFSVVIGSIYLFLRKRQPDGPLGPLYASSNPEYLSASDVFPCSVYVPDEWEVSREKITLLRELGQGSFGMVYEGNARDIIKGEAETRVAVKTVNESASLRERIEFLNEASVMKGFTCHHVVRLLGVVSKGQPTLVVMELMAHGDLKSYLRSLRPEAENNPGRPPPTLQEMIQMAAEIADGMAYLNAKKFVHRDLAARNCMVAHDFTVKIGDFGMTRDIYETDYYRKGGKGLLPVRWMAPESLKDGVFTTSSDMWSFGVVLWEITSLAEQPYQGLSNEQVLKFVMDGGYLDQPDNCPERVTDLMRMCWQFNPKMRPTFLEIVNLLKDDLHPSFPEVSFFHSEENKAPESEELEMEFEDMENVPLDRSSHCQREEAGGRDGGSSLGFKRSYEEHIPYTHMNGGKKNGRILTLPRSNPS
# Assay Notes: Inhibition of INSR (unknown origin) at 30 uM by microfluidic mobility shift assay relative to control
// return numeric value only (unit: %, not printed)

compound="O=S(=O)(c1cccc2cnccc12)N1CCC2(CCC(O)CN2)CC1 (racemic)" unit_of_measurement=% reported_value=0

Noted inhibition for O=S(=O)(c1cccc2cnccc12)N1CCC2(CC1)CC(O)CCN2 (racemic) , tested on Insulin receptor (Homo sapiens) (UniProt P06213): 0

Noted inhibition for `O=S(=O)(c1cccc2cnccc12)N1CCC2(CCCNC2)CC1` , tested on Insulin receptor (Homo sapiens) (UniProt P06213): 6

Noted inhibition for `c1nc(N2CCC3(CCCCO3)CC2)c2nc[nH]c2n1` , tested on Insulin receptor (Homo sapiens) (UniProt P06213): 12

Noted inhibition for `c1nc(N2CCC3(CCCN3)CC2)c2nc[nH]c2n1` , tested on Insulin receptor (Homo sapiens) (UniProt P06213): 2

Noted inhibition for `O=S(=O)(c1cccc2cnccc12)N1CCC2(CCNC2)CC1` , tested on Insulin receptor (Homo sapiens) (UniProt P06213): 4
